- Test system: HT29 clonogens
- Test Name: Clonogenic assay (C10), oxic/hypoxic, HT29
- Format: cell-based, human
- Condition Notes: C10(aerobic)/C10(hypoxic)
Measurement Label: Clonogenic HCR HT29
Give bare numbers.

Illustrative cases are given below, each with its answer.
- Compound: "CN(C)CCOc1ccc2[nH]c(C(=O)N3CC(CCl)c4c3cc([N+](=O)[O-])c3ccc(C(N)=O)cc43)cc2c1 (centres unmarked)"
  Clonogenic HCR HT29: 21.2
- Compound: "CN(C)CCOc1ccc2[nH]c(C(=O)N3CC(CCl)c4c3cc([N+](=O)[O-])c3ccccc43)cc2c1 (centres unmarked) [Compound R2, reference compound]"
  Clonogenic HCR HT29: 2
- Compound: "CN(C)CCNS(=O)(=O)c1ccc2c3c(cc([N+](=O)[O-])c2c1)N(C(=O)c1cc2cc(OCCN(C)C)ccc2[nH]1)CC3CCl (centres unmarked)"
  Clonogenic HCR HT29: 55

We now examine a further compound.
Bench note: what Clonogenic HCR HT29 did CN(C)CCOc1ccc2[nH]c(C(=O)N3CC(CCl)c4c3cc([N+](=O)[O-])c3cc(S(=O)(=O)NCCO)ccc43)cc2c1 (centres unmarked) show?
74.4
